# Tested on: BT-474 Tam1
# procedure.summary: drug sensitivity score (DSS) (DSS (dimensionless)); higher = more sensitive; extreme values may be limits of the assay
# run.conditions: 4-OH-tamoxifen in medium 1 µM; 72 h
drug sensitivity score: recorded values
Form: value (number only, do not type unit).

// query # get_value(readout='drug sensitivity score', item= CN(Cc1cnc2nc(N)nc(N)c2n1)c1ccc(C(=O)N[C@@H](CCC(=O)O)C(=O)O)cc1 [Methotrexate] )
// result 0

// query # get_value(readout='drug sensitivity score', item= CC(C)n1cnc2c(NCCc3ccc(O)cc3)nc(-c3csc4ccccc34)nc21 )
// result 7.32

// query # get_value(readout='drug sensitivity score', item= N#Cc1ccc(C(c2ccc(C#N)cc2)n2cncn2)cc1 )
// result 0

// query # get_value(readout='drug sensitivity score', item= CO[C@H](C(=O)[C@@H](O)[C@@H](C)O)[C@@H]1Cc2cc3cc(O[C@H]4C[C@@H](O[C@@H]5C[C@@H](O)[C@H](O)[C@@H](C)O5)[C@H](O)[C@@H](C)O4)c(C)c(O)c3c(O)c2C(=O)[C@H]1O[C@H]1C[C@@H](O[C@@H]2C[C@@H](O)[C@@H](O[C@@H]3C[C@](C)(O)[C@H](O)[C@@H](C)O3)[C@@H](C)O2)[C@H](O)[C@@H](C)O1 )
// result 13.7

// query # get_value(readout='drug sensitivity score', item= CC(C)C[C@H](NC(=O)[C@H](CCc1ccccc1)NC(=O)CN1CCOCC1)C(=O)N[C@@H](Cc1ccccc1)C(=O)N[C@@H](CC(C)C)C(=O)[C@@]1(C)CO1 )
// result 27.9

###

# Tested on: T-47D
# procedure.summary: drug sensitivity score (DSS) (DSS (dimensionless)); higher = more sensitive; extreme values may be limits of the assay
# run.conditions: 4-OH-tamoxifen in medium 0 µM; 72 h
drug sensitivity score: recorded values
Form: value (number only, do not type unit).

These recorded examples may help you get a feel for the data.
1. COCC[n+]1c2c(n(Cc3cnccn3)c1C)C(=O)c1ccccc1C2=O :: 27.1
2. Cn1c(=O)c(F)c(Nc2ccc(I)cc2F)c2c(=O)n(C[C@@H](O)CO)cnc21 :: 0
3. Cc1cc(Nc2nc(N[C@@H](C)c3ncc(F)cn3)ncc2Cl)[nH]n1 :: 0
4. C[C@]12C=CC(=O)C=C1CC[C@@H]1[C@@H]2C(=O)C[C@@]2(C)[C@H]1CC[C@]2(O)C(=O)CO :: 0
5. CC1=C(/C=C/C(C)=C/C=C/C(C)=C/C(=O)O)C(C)(C)CCC1 :: 0
6. CC(=O)O[C@H]1C(=O)[C@@]2(C)[C@H]([C@H](OC(=O)c3ccccc3)[C@]3(O)C[C@H](OC(=O)[C@H](O)[C@@H](NC(=O)c4ccccc4)c4ccccc4)C(C)=C1C3(C)C)[C@]1(OC(C)=O)CO[C@@H]1C[C@@H]2O :: 13

// query # get_value(readout='drug sensitivity score', item= Cc1cc(C(C)Nc2ccccc2)c2nc(N3CCOCC3)cc(=O)n2c1 (configuration not stated) )
// result 0

###

# Test system: BT-474 Tam1
# procedure.summary: relative IC50 (midpoint of fitted logistic curve, plateau may be below 50% inhibition; CellTiter-Glo viability); higher = less potent
# run.conditions: 4-OH-tamoxifen in medium 1 µM; 72 h
attribute.measured: relative IC50 (nM)
Entry rule: numbers only, all in nM.

These recorded examples may help you get a feel for the data.
1. COc1c(C)cnc(Cn2cnc3c(Cl)nc(N)nc32)c1C [BIIB021] :: 35.4
2. COc1ncc(-c2ccc3nccc(-c4ccnnc4)c3c2)cc1NS(=O)(=O)c1ccc(F)cc1F :: 2.07
3. COc1ccc(-c2cc3c(C)nc(N)nc3n([C@H]3CC[C@H](OCCO)CC3)c2=O)cn1 :: 121

Okay, now this compound:
// query # get_value(readout='relative IC50', item= C=CC[C@@H]1/C=C(\C)C[C@H](C)C[C@H](OC)[C@H]2O[C@@](O)(C(=O)C(=O)N3CCCC[C@H]3C(=O)O[C@H](/C(C)=C/[C@@H]3CC[C@@H](O)[C@H](OC)C3)[C@H](C)[C@@H](O)CC1=O)[C@H](C)C[C@@H]2OC [Tacrolimus (FK 506)] )
// result 2790
